Details: in n-butanol, 308.2 K
Quantity name: solubility (mole fraction)
# respond with the number and nothing more

What does the data say about its solubility (mole fraction)? Entry: O=c1cc(-c2ccc(O)c(O)c2)oc2cc(O)cc(O)c12
0.00415

====

Details: in transcutol, 308.2 K
Quantity name: solubility (mole fraction)
Reply: number alone, nothing else.

Suppose we examine the compound O=c1cc(-c2ccc(O)c(O)c2)oc2cc(O)cc(O)c12 ; what solubility (mole fraction) value has been reported?
0.0354

====

Details: in ethanol, 303.2 K
Quantity name: solubility (mole fraction)
Please give only the number in your answer, with no unit.

Could you share which solubility (mole fraction) value was measured for O=c1cc(-c2ccc(O)c(O)c2)oc2cc(O)cc(O)c12 ?
0.00209

====

Details: in isopropanol, 298.2 K
Quantity name: solubility (mole fraction)

Param item = O=c1cc(-c2ccc(O)c(O)c2)oc2cc(O)cc(O)c12 ; retrieve measured solubility (mole fraction).
0.00251

====

Details: in DMSO, 303.2 K
Quantity name: solubility (mole fraction)

Recorded solubility (mole fraction) for O=c1cc(-c2ccc(O)c(O)c2)oc2cc(O)cc(O)c12 , please?
0.0564
